# Assay Explanation: Non-enzymatic superoxide anion radical scavenging assay (PMS)
# Condition Set: 0.1 mM
Parameter Measured: PMS% (superoxide anion radical scavenging)

Compound	Result
Cn1c(=O)c(C(=O)Nc2ccc(F)cc2)c(O)c2ccccc21	no
O=C(Nc1ccc(O)cc1)c1c(O)c2ccccc2n(-c2ccccc2)c1=O	no
CCCNC(=O)c1c(O)c2ccccc2n(-c2ccccc2)c1=O	84.6%
CC1CCCCC1NC(=O)c1c(O)c2ccccc2n(C)c1=O (stereo not drawn)	no

// each listed compound needs a value for PMS% (superoxide anion radical scavenging)
1. O=C(NCCO)c1c(O)c2ccccc2n(-c2ccccc2)c1=O
2. O=C(O)/C=C/c1ccc(O)c(O)c1 [Caffeic acid, reference compound]
3. O=C(Nc1ccncc1)c1c(O)c2ccccc2n(-c2ccccc2)c1=O
4. Cn1c(=O)c(C(=O)Nc2ccncc2)c(O)c2ccccc21
5. Cc1ccc(NC(=O)c2c(O)c3ccccc3n(C)c2=O)cc1
6. O=C(Nc1ccc(F)cc1)c1c(O)c2ccccc2n(-c2ccccc2)c1=O
7. CC1CCCCC1NC(=O)c1c(O)c2ccccc2n(-c2ccccc2)c1=O (stereo not drawn)
8. Cn1c(=O)c(C(=O)Nc2ccccc2O)c(O)c2ccccc21

Given back:
1. 66.6%
2. 23%
3. no
4. no
5. no
6. no
7. no
8. no

// for each compound below, give its PMS% (superoxide anion radical scavenging)
1. Cc1ccccc1NC(=O)c1c(O)c2ccccc2n(C)c1=O
2. Cn1c(=O)c(C(=O)NCCc2ccc(O)cc2)c(O)c2ccccc21
3. Cc1ccc(NC(=O)c2c(O)c3ccccc3n(-c3ccccc3)c2=O)cc1
4. O=C(NCCc1ccc(O)cc1)c1c(O)c2ccccc2n(-c2ccccc2)c1=O
5. CCCCCCCNC(=O)c1c(O)c2ccccc2n(C)c1=O
6. Cn1c(=O)c(C(=O)NCCO)c(O)c2ccccc21

Given back:
1: 61.5%; 2: no; 3: no; 4: no; 5: 66.6%; 6: 76.9%

====

# Assay Explanation: Interaction with the stable free radical DPPH (reducing activity)
# Condition Set: 100 μM, 20 min
Would you kindly list Interaction with the Free Radical DPPH (%) for each of these molecules?
One number for each entry, in %.

Molecule	Quantitative Readout
Cn1c(=O)c(C(=O)NCCO)c(O)c2ccccc21	3.3
Cc1ccc(NC(=O)c2c(O)c3ccccc3n(-c3ccccc3)c2=O)cc1	12.1
CC1CCCCC1NC(=O)c1c(O)c2ccccc2n(-c2ccccc2)c1=O (centres unmarked)	5.2
CCn1c(=O)c(C(=O)NCCNC(=O)/C=C/c2ccc(OC(C)=O)c(OC)c2)c(O)c2ccccc21 [Compound 11e]	3.0
CCCCCCCNC(=O)c1c(O)c2ccccc2n(C)c1=O	6.6

Could I get Interaction with the Free Radical DPPH (%) for every one of these entries?
1. C[C@H](Cc1ccc(O)c(O)c1)[C@@H](C)Cc1ccc(O)c(O)c1 [NDGA, nordihydroguaiaretic acid, reference compound]
2. O=C(Nc1ccncc1)c1c(O)c2ccccc2n(-c2ccccc2)c1=O
3. CCn1c(=O)c(C(=O)NCCNC(=O)c2ccc(OC(C)=O)cc2)c(O)c2ccccc21 [Compound 11a]

Given back:
1. 83.0
2. 19.3
3. 1.0

====

Sequence of the target: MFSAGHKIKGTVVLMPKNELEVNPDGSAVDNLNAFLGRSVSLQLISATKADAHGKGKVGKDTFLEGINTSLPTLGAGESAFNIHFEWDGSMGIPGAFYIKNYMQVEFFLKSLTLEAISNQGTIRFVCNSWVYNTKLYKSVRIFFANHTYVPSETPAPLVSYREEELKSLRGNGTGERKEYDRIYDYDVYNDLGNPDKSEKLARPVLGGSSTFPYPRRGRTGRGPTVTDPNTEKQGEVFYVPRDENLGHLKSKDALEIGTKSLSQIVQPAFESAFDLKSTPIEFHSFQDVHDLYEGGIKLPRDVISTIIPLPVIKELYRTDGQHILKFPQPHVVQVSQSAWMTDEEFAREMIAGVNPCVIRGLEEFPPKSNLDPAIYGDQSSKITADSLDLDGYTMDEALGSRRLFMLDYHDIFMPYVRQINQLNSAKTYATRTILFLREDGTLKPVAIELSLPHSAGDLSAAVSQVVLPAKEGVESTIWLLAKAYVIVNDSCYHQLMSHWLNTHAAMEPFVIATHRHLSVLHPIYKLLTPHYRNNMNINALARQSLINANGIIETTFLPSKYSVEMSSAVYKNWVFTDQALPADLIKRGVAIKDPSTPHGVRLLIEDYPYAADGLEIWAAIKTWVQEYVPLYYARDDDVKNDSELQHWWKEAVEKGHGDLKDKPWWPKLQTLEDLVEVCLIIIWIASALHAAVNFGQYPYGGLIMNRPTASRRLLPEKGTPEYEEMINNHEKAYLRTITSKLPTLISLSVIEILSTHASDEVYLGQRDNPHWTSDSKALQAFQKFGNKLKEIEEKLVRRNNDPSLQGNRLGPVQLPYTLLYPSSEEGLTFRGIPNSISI
Parameter Measured: pIC50
Numbers only, as −log10 of the molar value.

Past entries and their recorded results:
Compound	pIC50
CCn1c(=O)c(C(=O)NCCNC(=O)c2ccccc2)c(O)c2ccccc21 [Compound 11c]	4.24
CCn1c(=O)c(C(=O)NCCNC(=O)c2ccc(OC(C)=O)cc2)c(O)c2ccccc21 [Compound 11a]	4.21
CCn1c(=O)c(C(=O)NCCNC(=O)/C=C/c2ccccc2)c(O)c2ccccc21 [Compound 11g]	4.07

Value sought for every listed compound: pIC50.
1. O=C(Nc1ccc(O)cc1)c1c(O)c2ccccc2n(-c2ccccc2)c1=O
2. Cc1ccc(C(=O)Nc2c(O)c3ccccc3n(C)c2=O)cc1 [Compound 16b]
3. Cn1c(=O)c(NC(=O)c2ccccc2O)c(O)c2ccccc21 [Compound 16c]
4. CCn1c(=O)c(C(=O)NCCNC(=O)c2cc(OC)c(OC(C)=O)c(OC)c2)c(O)c2ccccc21 [Compound 11b]
5. CCn1c(=O)c(C(=O)NCCNC(=O)/C=C/c2ccc(OC)cc2)c(O)c2ccccc21 [Compound 11f]
6. CCCC(=O)Nc1c(O)c2ccccc2n(C)c1=O [Compound 16a]

Given back:
1. 4.56
2. 4.00
3. 4.08
4. 4.15
5. 4.15
6. 4.09

====

Task for the reader: assign each of the following compounds its reported inhibition at 100 µM.
# System Name: soybean lipoxygenase (Glycine max, UniProt P08170)
# Construct: purchased Sigma Chemical, Co. (St. Louis, MO, USA)
# Sequence (P08170 1-839): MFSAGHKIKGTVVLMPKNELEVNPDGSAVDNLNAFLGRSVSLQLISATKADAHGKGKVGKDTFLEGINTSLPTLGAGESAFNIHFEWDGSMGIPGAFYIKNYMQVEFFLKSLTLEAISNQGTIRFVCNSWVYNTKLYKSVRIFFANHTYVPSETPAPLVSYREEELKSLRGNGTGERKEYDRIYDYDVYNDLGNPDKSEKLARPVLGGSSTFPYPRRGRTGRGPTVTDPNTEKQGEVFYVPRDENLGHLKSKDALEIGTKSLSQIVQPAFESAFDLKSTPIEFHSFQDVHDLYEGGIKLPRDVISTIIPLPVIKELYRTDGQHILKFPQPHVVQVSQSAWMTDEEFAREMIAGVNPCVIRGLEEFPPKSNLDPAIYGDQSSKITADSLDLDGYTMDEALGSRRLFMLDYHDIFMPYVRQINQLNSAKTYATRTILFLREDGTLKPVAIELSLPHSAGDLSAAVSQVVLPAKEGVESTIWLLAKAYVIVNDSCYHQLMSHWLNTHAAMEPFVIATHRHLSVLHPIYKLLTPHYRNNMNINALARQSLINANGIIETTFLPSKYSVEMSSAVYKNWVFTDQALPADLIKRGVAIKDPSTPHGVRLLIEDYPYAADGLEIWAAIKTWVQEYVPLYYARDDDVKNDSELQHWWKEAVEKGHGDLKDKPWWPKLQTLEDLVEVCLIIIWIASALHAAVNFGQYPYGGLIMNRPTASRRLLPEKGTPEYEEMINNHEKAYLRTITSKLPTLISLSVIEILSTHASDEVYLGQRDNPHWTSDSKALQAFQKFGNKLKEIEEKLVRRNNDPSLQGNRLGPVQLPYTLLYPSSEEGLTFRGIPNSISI
# Assay Explanation: Soybean LOX inhibition in vitro (UV absorbance-based assay)
# Assay type: biochemical
# Condition Set: 0.1 mM
One number for each entry, in %.

Observe how each entry below is paired with its result.
Compound	Parameter Measured	Quantitative Readout
CCn1c(=O)c(C(=O)NCCNC(=O)/C=C/c2ccc(OC(C)=O)cc2)c(O)c2ccccc21 [Compound 11d]	inhibition at 100 µM	5
Cc1ccc(NC(=O)c2c(O)c3ccccc3n(-c3ccccc3)c2=O)cc1	inhibition at 100 µM	37.5
Cn1c(=O)c(C(=O)Nc2ccc(F)cc2)c(O)c2ccccc21	inhibition at 100 µM	15

We now examine a further compound.
Lookup result for CCCNC(=O)c1c(O)c2ccccc2n(-c2ccccc2)c1=O ; measured inhibition at 100 µM: 45
